Values were extracted from ChEMBL document CHEMBL4400533.

Target: Histone deacetylase 4 (Homo sapiens)
Sequence (P56524 whole entry): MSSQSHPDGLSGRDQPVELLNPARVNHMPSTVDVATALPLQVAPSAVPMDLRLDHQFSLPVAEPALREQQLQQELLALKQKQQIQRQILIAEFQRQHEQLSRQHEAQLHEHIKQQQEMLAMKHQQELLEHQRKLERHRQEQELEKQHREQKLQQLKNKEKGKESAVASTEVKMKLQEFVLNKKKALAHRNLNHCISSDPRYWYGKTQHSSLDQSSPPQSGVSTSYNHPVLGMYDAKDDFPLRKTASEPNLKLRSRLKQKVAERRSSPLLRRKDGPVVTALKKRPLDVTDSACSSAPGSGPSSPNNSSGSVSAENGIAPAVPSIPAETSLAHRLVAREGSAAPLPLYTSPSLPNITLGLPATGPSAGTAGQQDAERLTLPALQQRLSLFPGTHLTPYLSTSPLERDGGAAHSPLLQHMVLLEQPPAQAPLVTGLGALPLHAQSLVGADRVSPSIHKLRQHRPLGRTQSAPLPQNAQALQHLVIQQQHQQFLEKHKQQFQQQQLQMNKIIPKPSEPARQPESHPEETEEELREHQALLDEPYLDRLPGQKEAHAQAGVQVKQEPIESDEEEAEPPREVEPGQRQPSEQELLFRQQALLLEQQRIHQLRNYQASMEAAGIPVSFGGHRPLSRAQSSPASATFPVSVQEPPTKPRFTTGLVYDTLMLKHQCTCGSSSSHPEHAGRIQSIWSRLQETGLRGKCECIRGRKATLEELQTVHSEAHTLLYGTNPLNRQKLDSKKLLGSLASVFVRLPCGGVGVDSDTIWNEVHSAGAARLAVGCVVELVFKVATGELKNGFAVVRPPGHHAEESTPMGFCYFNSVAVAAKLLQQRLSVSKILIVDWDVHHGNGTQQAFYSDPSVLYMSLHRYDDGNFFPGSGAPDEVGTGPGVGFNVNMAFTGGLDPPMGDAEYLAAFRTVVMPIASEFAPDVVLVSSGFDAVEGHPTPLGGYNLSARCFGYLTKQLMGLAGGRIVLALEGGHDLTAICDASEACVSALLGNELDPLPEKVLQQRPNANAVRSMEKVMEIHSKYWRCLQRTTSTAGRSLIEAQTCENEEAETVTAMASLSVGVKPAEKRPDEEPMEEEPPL
Assay: Inhibition of recombinant human HDAC4 using fluorescently-labeled acetylated histone peptide as substrate by microfluidic mobility shift assay
endpoint label: pIC50
pIC50 here is simply -log10 of the concentration when that concentration is written in mol/L.

Ask: Provide measured pIC50 on Histone deacetylase 4 (Homo sapiens) for `C=C1CN(Cc2ccc(C(=O)Nc3ccccc3N)cc2)C(=O)c2ccccc21` please.
Result: 5.30

====

Biological target: Histone deacetylase 3 (Homo sapiens)
Sequence (O15379 whole entry): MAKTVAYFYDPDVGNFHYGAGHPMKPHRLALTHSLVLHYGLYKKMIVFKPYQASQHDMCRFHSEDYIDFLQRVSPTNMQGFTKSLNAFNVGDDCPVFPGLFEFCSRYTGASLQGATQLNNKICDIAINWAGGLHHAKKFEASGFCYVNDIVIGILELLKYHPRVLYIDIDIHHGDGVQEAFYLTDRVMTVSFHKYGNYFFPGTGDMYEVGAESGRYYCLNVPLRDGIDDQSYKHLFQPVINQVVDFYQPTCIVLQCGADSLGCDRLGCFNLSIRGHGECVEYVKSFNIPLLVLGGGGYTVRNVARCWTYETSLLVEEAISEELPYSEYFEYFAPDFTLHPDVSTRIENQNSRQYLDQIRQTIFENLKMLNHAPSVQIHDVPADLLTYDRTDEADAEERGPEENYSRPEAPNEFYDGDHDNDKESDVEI
Reported IC50 is given for each of the following compounds.
Write down the numeric answer in nM and omit the unit.

Worked cases, answers included:
>>> print(df.to_string())
                            compound_string                         tested_system  numeric_result
0  CCOC(=O)Nc1cccc(-c2csc(NC(=O)CCCCCC(=O)NO)n2)c1  Histone deacetylase 3 (Homo sapiens)             1.3
1  CCOC(=O)Nc1cccc(-c2csc(NC(=O)CCCCCC(=O)Nc3ccccc3N)n2)c1  Histone deacetylase 3 (Homo sapiens)              60

Ask: Provide measured IC50 on Histone deacetylase 3 (Homo sapiens) for `CC(=O)Nc1cccc(-c2csc(NC(=O)CCCCCC(=O)Nc3ccccc3N)n2)c1` please.
Result: 30
